Biological target: Insulin-like growth factor 1 receptor (Homo sapiens)
Sequence (P08069 31-736 limits assumed): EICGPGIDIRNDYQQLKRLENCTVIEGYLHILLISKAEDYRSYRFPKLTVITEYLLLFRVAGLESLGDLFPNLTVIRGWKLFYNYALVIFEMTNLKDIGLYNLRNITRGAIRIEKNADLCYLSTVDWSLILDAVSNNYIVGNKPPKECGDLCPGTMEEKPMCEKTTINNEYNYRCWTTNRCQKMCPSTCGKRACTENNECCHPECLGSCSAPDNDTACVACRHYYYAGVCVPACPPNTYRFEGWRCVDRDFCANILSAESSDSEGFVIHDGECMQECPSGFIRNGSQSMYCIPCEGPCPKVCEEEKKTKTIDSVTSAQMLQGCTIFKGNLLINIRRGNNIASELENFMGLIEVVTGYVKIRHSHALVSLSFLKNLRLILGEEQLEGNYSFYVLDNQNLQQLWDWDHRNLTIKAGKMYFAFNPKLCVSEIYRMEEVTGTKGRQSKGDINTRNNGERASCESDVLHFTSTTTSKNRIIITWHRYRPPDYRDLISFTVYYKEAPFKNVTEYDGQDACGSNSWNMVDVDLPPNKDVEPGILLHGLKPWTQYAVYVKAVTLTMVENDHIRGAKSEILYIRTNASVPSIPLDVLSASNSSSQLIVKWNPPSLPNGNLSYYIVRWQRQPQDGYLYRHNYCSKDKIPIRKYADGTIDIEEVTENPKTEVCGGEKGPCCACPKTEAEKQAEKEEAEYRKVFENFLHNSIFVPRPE
Sequence (P08069 741-1367 limits assumed): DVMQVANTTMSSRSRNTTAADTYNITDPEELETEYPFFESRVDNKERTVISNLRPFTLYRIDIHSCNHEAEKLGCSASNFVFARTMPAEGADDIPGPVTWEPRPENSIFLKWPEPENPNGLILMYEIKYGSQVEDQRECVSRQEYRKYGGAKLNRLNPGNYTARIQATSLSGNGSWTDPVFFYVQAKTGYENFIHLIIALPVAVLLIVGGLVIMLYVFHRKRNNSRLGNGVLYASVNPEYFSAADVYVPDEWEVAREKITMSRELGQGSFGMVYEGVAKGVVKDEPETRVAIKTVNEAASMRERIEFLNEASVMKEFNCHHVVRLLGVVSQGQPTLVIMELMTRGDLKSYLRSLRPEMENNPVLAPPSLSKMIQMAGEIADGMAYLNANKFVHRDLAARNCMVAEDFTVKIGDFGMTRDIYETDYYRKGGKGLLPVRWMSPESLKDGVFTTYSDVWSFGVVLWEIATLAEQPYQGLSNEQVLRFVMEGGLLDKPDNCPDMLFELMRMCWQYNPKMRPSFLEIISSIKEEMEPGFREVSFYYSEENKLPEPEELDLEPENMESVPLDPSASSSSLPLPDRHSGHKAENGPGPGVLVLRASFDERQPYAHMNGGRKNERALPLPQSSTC
Test: Inhibition of human IGF1R autophosphorylation in transfected mouse NIH3T3 cells
Type: cell-based
IC50 overview
Provide only the numeric value, understood in nM.

Please review the entries below; each comes with its answer.
Molecular string | Units of measure | IC50
COc1cc(N2CCC(N3CCN(C)CC3)CC2)ccc1Nc1nccc(-c2c(-c3cccc(C(=O)Nc4c(F)cccc4F)c3)nc3ccccn23)n1 | nM | 28
COc1cc(N2CCC(N3CCCCC3)CC2)ccc1Nc1nccc(-c2c(-c3cccc(C(=O)Nc4c(F)cccc4F)c3)nc3ccccn23)n1 | nM | 38
O=C(Nc1c(F)cccc1F)c1cccc(-c2nc3ccccn3c2-c2ccnc(Nc3ccc(N4CCC(N5CCCCC5)CC4)cc3)n2)c1 | nM | 87
COc1cc(N2CCC(N3CCOCC3)CC2)ccc1Nc1nccc(-c2c(-c3cccc(C(=O)Nc4c(F)cccc4F)c3)nc3ccccn23)n1 | nM | 41
CCc1cc(Nc2nccc(-c3c(-c4ccc(OC)c(C(=O)Nc5c(F)cccc5F)c4)nc4ccccn34)n2)c(OC)cc1N1CCC(N2CCN(S(C)(=O)=O)CC2)CC1 | nM | 22
COc1cc(N2CCC(N3CCN(S(C)(=O)=O)CC3)CC2)ccc1Nc1nccc(-c2c(-c3cccc(C(=O)Nc4c(F)cccc4F)c3)nc3ccccn23)n1 | nM | 36
COc1cc(N2CCC(N3CC[C@@H](F)C3)CC2)ccc1Nc1nccc(-c2c(-c3cccc(C(=O)Nc4c(F)cccc4F)c3)nc3ccccn23)n1 | nM | 40
CN(C)CCOc1cccc(Nc2nccc(-c3c(-c4cccc(C(=O)Nc5c(F)cccc5F)c4)nc4ccccn34)n2)c1 | nM | 177
COc1cc(N2CCC(N3CCCC3)CC2)ccc1Nc1nccc(-c2c(-c3cccc(C(=O)Nc4c(F)cccc4F)c3)nc3ccccn23)n1 | nM | 38
COc1cc(N2CCC(N3CCN(C(C)=O)CC3)CC2)ccc1Nc1nccc(-c2c(-c3cccc(C(=O)Nc4c(F)cccc4F)c3)nc3ccccn23)n1 | nM | 65

Now examine the next entry.
q: Recorded IC50 for COc1cc(N2CCC(N3C[C@@H](C)O[C@@H](C)C3)CC2)ccc1Nc1nccc(-c2c(-c3cccc(C(=O)Nc4c(F)cccc4F)c3)nc3ccccn23)n1 , please?
a: 68

###

Molecular target: Insulin-like growth factor 1 receptor (Homo sapiens)
Readout name: pKi
Hey, just a heads up that pKi is the negative log base 10 of the concentration in molar.

q: Recorded pKi for CCc1cc(Nc2nccc(-c3c(-c4ccc(OC)c(C(=O)Nc5c(F)cccc5F)c4)nc4ccccn34)n2)c(OC)cc1N1CCC(N2CCN(S(C)(=O)=O)CC2)CC1 , please?
a: 8.80

###

Target: Receptor tyrosine-protein kinase erbB-4 (Homo sapiens)
Sequence (Q15303 whole entry): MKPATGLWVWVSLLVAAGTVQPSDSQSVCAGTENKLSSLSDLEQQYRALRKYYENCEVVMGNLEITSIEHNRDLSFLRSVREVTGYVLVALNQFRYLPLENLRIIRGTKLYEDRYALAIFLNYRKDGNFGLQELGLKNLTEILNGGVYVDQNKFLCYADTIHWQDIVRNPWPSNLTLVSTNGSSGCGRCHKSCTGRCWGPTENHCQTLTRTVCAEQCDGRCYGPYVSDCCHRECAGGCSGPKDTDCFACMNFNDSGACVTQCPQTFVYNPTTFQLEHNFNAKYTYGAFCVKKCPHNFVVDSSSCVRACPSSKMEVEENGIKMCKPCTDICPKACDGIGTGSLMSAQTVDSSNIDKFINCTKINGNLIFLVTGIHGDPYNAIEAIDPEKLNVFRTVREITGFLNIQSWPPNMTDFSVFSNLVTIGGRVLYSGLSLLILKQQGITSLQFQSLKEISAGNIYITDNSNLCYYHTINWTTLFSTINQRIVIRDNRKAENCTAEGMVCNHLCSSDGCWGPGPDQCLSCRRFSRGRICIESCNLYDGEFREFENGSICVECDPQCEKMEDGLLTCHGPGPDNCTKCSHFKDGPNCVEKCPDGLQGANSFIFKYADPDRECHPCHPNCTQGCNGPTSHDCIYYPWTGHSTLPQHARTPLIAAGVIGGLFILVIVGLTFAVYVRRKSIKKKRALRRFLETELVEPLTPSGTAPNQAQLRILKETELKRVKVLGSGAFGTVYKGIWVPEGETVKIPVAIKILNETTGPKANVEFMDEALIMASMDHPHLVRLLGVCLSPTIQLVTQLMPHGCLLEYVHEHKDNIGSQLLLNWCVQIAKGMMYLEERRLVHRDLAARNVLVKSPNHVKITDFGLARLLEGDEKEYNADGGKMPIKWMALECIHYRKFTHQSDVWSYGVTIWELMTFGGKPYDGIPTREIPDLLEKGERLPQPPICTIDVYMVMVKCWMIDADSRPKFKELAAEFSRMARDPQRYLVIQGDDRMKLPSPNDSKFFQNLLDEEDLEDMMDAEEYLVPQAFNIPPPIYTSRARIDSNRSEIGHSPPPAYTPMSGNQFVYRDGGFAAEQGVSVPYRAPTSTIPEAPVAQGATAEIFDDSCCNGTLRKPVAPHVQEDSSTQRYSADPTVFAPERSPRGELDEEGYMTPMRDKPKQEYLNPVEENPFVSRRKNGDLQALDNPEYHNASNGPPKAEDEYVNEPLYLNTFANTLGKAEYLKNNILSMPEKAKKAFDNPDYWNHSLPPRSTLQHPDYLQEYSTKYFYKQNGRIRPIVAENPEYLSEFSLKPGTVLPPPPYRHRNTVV
Assay: Inhibition of ErbB4
Readout name: pIC50
Hey, just a heads up that pIC50 is the negative log base 10 of the concentration in molar.

q: Recorded pIC50 for CCc1cc(Nc2nccc(-c3c(-c4cccc(C(=O)Nc5c(F)cccc5F)c4)nc4ccccn34)n2)c(OC)cc1N1CCC(N2CCN(S(C)(=O)=O)CC2)CC1 , please?
a: 6.85

###

Lab note: IC50 readings collected with Aurora kinase B (Homo sapiens, UniProt Q96GD4) for the following molecules.
Sequence (Q96GD4 whole entry): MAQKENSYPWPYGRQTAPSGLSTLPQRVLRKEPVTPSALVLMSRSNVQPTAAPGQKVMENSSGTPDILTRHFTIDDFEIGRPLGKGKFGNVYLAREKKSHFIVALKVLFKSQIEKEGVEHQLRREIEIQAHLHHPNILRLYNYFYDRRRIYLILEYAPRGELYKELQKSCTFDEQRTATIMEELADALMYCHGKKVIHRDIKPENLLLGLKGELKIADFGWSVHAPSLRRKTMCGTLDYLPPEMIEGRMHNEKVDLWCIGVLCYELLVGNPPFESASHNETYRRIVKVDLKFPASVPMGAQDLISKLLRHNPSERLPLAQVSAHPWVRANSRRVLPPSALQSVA
Provide only the numeric value, understood in nM.

Molecular string | IC50 [nM]
CCc1cc(Nc2nccc(-c3c(-c4ccc(OC)c(C(=O)Nc5c(F)cccc5F)c4)nc4ccccn34)n2)c(OC)cc1N1CCC(N2CCN(S(C)(=O)=O)CC2)CC1 | 4500

Now examine the next entry.
q: Recorded IC50 for COc1cc(N2CCC(N3CCN(S(C)(=O)=O)CC3)CC2)ccc1Nc1nccc(-c2c(-c3cccc(C(=O)Nc4c(F)cccc4F)c3)nc3ccccn23)n1 , please?
a: 200

Sourced from ChEMBL document CHEMBL1143280
